Molecular target: KRAS G12D (Homo sapiens (Human), UniProt P01116+P62937, G12D)
Sequence (P01116-2 other isoform, or with tags, fused parts or gaps G12D): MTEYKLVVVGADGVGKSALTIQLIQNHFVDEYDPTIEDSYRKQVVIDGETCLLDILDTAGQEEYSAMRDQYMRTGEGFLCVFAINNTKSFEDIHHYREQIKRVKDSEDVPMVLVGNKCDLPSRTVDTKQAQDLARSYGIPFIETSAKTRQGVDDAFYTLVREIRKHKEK
Sequence (P62937 whole entry): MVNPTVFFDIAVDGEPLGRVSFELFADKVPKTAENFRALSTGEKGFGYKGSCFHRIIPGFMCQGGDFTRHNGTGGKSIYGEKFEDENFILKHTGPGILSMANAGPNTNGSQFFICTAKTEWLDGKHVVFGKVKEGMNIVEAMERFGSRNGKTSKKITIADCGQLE
Test: Ras-Raf (BRAF RBD) disruption / FRET / MOA assay, KRAS G12D
Type: biochemical
Conditions: Ras-Raf disruption/FRET/MOA assay; class symbols; read-out: KRAS G12D FRET data IC50
# IC50 values compiled below

| compound | IC50 |
| --- | --- |
| C=CC(=O)N1CCN(C(=O)N(C)[C@H](C(=O)N[C@H]2Cc3nc(cs3)-c3ccc4c(c3)c(c(-c3cccnc3[C@H](C)OC)n4CC(F)(F)F)CC(C)(C)COC(=O)[C@@H]3CCCN(N3)C2=O)C(C)C)CC12CC2 (atropisomer, axis not shown) [Example A679] | 0.1 to 1 µM |
| CO[C@@H](C)c1ncccc1-c1c2c3cc(ccc3n1CC(F)(F)F)-c1cccc(c1)C[C@H](NC(=O)[C@H](C(C)C)N(C)C(=O)[C@H]1CCN(C(=O)C#CC(C)(C)N(C)C)C1)C(=O)N1CCC[C@H](N1)C(=O)OCC(C)(C)C2 (atropisomer, axis not shown) [Example A727] | 1 to 10 µM |
| C=CC(=O)N1CCO[C@@H]2CN(C(=O)N(C)[C@H](C(=O)N[C@H]3Cc4nc(cs4)-c4ccc5c(c4)c(c(-c4cccnc4[C@H](C)OC)n5CC)CC(C)(C)COC(=O)[C@@H]4CCCN(N4)C3=O)C(C)C)C[C@@H]21 (atropisomer, axis not shown) [Example A714] | 1 to 10 µM |
| C=CC(=O)N1C[C@H](C(=O)N(C)[C@H](C(=O)N[C@H]2Cc3cccc(c3)-c3ccc4c(c3)c(c(-c3cccnc3[C@H](C)OC)n4CC)CC(C)(C)COC(=O)[C@@H]3CCCN(N3)C2=O)C(C)C)[C@H](C(F)(F)F)C1 (atropisomer, axis not shown) [Example A400] | > 10 µM |
